test system: ATP; assay: switch fluorescence ratio, 500 uM ATP over buffer (Cy3 cluster intensity, sum of 5 cycles each) (fold (ratio)); higher = stronger signal-on switching upon ATP binding; sequences stand for … in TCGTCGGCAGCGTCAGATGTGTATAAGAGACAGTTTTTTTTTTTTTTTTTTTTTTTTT…TC; settings: aptamer strand: ATP DNA aptamer (quencher-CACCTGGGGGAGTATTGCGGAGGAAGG + anchor), 100 nM annealed; ATP concentration: 500 uM;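 note: ATP exposure 15 min at 22 °C before imaging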
Please note: condition met applies when switch fluorescence ratio is 1 or greater, and condition not met applies otherwise.

Completed entries (count: 5):
Would you say "AGGATGGAGG" shows switch fluorescence ratio at minimum 1?
condition met

Param item: "TAGTGTCTAG"
condition not met

Could you do the same for "AACTAGGGTG" , please?
condition met

// repeat for "CGAAGGAATC" and report
condition met

Next entry: "GCAGGCGTCA"
condition met

More entries:
For this sequence, is measured switch fluorescence ratio 1 or higher? "ATTTGTCGGC"
condition met

Also need "CCTACGGGCC" , thanks.
condition met

Another: "AAAAGAGGTG"
condition met

----------
system: ATP; experiment: switch fluorescence ratio, 500 uM ATP over buffer (Cy3 cluster intensity, sum of 5 cycles each) (fold (ratio)); higher = stronger signal-on switching upon ATP binding; sequences stand for … in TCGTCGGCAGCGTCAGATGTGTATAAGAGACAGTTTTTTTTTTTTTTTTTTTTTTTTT…TC; settings: aptamer strand: ATP DNA aptamer (quencher-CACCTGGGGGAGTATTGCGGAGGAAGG + anchor), 100 nM annealed; ATP concentration: 500 uM;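 note: ATP exposure 15 min at 22 °C before imaging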
Quantity kind: switch fluorescence ratio
When you answer, write just the number.

May I ask what switch fluorescence ratio has been recorded for "TGGTTGACGA" ?
1.01

Another sequence to look at: "GGGGGCGGAT"
0.992

And the next one, "GAGAGGGGTA" ?
0.974

Next: "ATATTAAGTT"
1.01

Then what about the sequence "CGGGGTACGG" ?
1.01

***
For the sequence "ATTCGCGGAA" , what switch fluorescence ratio is on record?
1.02

// repeat for "CAAACGTGGG" and report
0.986

----------
system: ATP; experiment: switch fluorescence ratio, 500 uM ATP over buffer (Cy3 cluster intensity, sum of 5 cycles each) (fold (ratio)); higher = stronger signal-on switching upon ATP binding; sequences stand for … in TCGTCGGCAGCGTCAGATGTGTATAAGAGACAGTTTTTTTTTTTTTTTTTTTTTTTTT…TC; conditions: aptamer strand: ATP DNA aptamer (quencher-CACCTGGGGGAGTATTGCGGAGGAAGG + anchor), 100 nM annealed; ATP concentration: 500 uM;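 note: ATP exposure 15 min at 22 °C before imaging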
Quantity kind: switch fluorescence ratio
Please give only the number in your answer, with no unit.

Any idea what its switch fluorescence ratio is? The sequence is "TCAGCGGGAG"
1.01

Further, for "CAAAAAGAGT" ?
1.01

Moving on to "ATGGAGTTTG"
0.99

Others:
Name the reported switch fluorescence ratio value associated with the sequence "AATTATAGTT"
0.993

And what about the sequence "GGTTTTCGGC" ?
0.977

Try the sequence "CAGTTATGTT"
0.993

What about this sequence? "AATGGGTGCA"
1.03

Also "CAATTTTAGG" ?
0.987

----------
system: ATP; assay: switch fluorescence ratio, 500 uM ATP over buffer (Cy3 cluster intensity, sum of 5 cycles each) (fold (ratio)); higher = stronger signal-on switching upon ATP binding; sequences stand for … in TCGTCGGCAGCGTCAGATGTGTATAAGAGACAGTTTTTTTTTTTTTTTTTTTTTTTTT…TC; conditions: aptamer strand: ATP DNA aptamer (quencher-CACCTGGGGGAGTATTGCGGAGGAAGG + anchor), 100 nM annealed; ATP concentration: 500 uM;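 note: ATP exposure 15 min at 22 °C before imaging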
# label = 1.0 if switch fluorescence ratio >= 1 else 0.0

For this sequence, is measured switch fluorescence ratio 1 or higher? "CCCGATGAGC"
1.0

Please answer likewise for "TCGTAGGGG"
0.0

Here is the next sequence: "TCCGCTTGTA"
1.0

Lookup "TATATGTATC"
0.0

Continuing:
In plain terms: is recorded switch fluorescence ratio at least 1 for "CAAGTAGGG" ?
0.0
